TARGET_SYSTEM: T1, recombinant extracellular portion of human IGF1R (IGF1R^933-His fragment) (human, UniProt P08069 31-933)
T1 construct: It holds a furin site (RKRR) between the alpha and beta subunits, so the protein may be cleaved into two disulphide-linked chains; also called h-IGF1R; recombinant human IGF1R; not shown: His tag from vector pCDN4/myc-His
T1 sequence (P08069 31-933): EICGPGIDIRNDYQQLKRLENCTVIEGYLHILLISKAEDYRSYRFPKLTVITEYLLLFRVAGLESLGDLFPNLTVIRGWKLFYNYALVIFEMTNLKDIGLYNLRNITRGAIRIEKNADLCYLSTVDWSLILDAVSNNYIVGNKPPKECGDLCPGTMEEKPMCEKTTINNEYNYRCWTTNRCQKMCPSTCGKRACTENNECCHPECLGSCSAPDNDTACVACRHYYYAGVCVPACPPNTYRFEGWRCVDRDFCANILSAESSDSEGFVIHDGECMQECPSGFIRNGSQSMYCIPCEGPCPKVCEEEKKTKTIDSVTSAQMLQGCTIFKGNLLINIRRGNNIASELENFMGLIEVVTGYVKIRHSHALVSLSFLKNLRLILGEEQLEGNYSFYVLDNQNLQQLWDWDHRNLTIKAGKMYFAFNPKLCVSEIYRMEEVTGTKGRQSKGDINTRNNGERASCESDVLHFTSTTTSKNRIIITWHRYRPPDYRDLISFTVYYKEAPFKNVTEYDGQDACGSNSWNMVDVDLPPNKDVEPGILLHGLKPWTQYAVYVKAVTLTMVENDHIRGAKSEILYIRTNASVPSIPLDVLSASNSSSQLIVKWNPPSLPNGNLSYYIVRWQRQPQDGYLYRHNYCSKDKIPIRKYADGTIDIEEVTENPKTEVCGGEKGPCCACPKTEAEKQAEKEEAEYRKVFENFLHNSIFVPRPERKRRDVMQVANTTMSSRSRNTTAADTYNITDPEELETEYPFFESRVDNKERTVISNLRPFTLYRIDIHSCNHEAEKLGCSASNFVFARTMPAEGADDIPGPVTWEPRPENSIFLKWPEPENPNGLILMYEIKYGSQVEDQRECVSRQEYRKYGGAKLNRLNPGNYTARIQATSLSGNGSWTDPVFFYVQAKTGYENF
PROTOCOL_DETAILS: SPR (BIACORE 3000), human IGF1R immobilized on CM5, VHH injected, 1:1 model, 25 C
MEASURED_METRIC: pKd
When answering, recall that pKd equals minus log10 of the concentration in mol/L, and write that number alone.

{"BINDER": "IGF1R-5_H5 (VHH, Humanized variant of IGF1R-5, expressed from pSJF2H in E. coli) VHH: QVQLVESGGGLVQPGGSLRLSCAASGRTIDNYAMAWSRQAPGKDREFVATIDWGDGGTRYANSVKGRFTISRDNSKGTMYLQMNSLRAEDTAVYSCAMARQSRVNLDVARYDYWGQGTLVTVSS", "MEASURED_METRIC": "pKd", "READOUT_NUMBER": 8.80}

Prompt: Item IGF1R-5_H6 (VHH, Humanized variant of IGF1R-5, expressed from pSJF2H in E. coli) VHH: EVQLVESGGGLVQPGGSLRLSCAASGRTIDNYAMAWSRQAPGKDREFVSTIDWGDGGTRYANSVKGRFTISRDNSKNTLYLQMNSLRAEDTAVYYCAMARQSRVNLDVARYDYWGQGTLVTVSS has what recorded pKd?
Response: 8.77
